Hello, the source for this data is PubChem BioAssay AID256, in case you need it.

- System: CD2F1 mice, L1210 leukemia ip, survival T/C
- test.protocol: NCI In Vivo Anticancer Drug Screen. Data for tumor model L1210 Leukemia (intraperitoneal) in CD2F1 (CDF1) mice
- condition: endpoint: mean survival time; dose: 50.0 mg/kg/injection; schedule: Q04DX003 (ip); vehicle: saline
Inconclusive results and toxic doses are left out. Rule for the calls: active = survival T/C of 150% or more; inactive = T/C below 125% in these data.
Labels: 1 for active, -1 for inactive

[
  {
    "compound": "O=P(O)(O)c1ccc(I)cc1",
    "assigned.class": -1
  },
  {
    "compound": "[NH-]C(CO)C(=O)O.[NH-]C(CO)C(=O)O.[Pd+2] (centres undefined)",
    "assigned.class": -1
  },
  {
    "compound": "c1nc(N2CC2)c2cnn(C3CCCCO3)c2n1 (centres undefined)",
    "assigned.class": -1
  },
  {
    "compound": "CS(=O)(=O)OCCCNCCCOS(C)(=O)=O",
    "assigned.class": 1
  },
  {
    "compound": "CC(=O)NCCN",
    "assigned.class": -1
  },
  {
    "compound": "O=S(=O)(c1ccccc1)c1cccs1",
    "assigned.class": -1
  },
  {
    "compound": "CCC(C#N)=C1CCCCC1",
    "assigned.class": -1
  },
  {
    "compound": "O=C(C[n+]1ccc2ccccc2c1)c1ccc(Br)cc1",
    "assigned.class": -1
  },
  {
    "compound": "CCOC(=O)C(F)(C(=O)OCC)[N+](=O)[O-]",
    "assigned.class": -1
  },
  {
    "compound": "Cc1c2ccncc2c(C)c2c1[nH]c1ccccc12",
    "assigned.class": 1
  },
  {
    "compound": "COC(=O)C(C)C(C)(O)C(C)(C)C (centres undefined)",
    "assigned.class": -1
  },
  {
    "compound": "Cc1ccc(P(=O)(O)O)c([N+](=O)[O-])c1",
    "assigned.class": -1
  },
  {
    "compound": "O=P(O)(O)c1ccc(Oc2ccccc2)cc1",
    "assigned.class": -1
  },
  {
    "compound": "NS(=O)(=O)c1cccc([As](=O)(O)O)c1",
    "assigned.class": -1
  }
]

* * *

- Tested on: CD2F1 mice, L1210 leukemia ip, survival T/C
- test.protocol: NCI In Vivo Anticancer Drug Screen. Data for tumor model L1210 Leukemia (intraperitoneal) in CD2F1 (CDF1) mice
- condition: endpoint: mean survival time; dose: 400.0 mg/kg/injection; schedule: Q01DX009 (ip); vehicle: Klucel (hydroxypropylcellulose) (HPC); higher = longer survival
Toxic doses and inconclusive results are not listed.
T/C values for the molecules below.
observable: T/C

[
  {
    "molecule": "COC(=O)C1=NNC(C(=O)OC)=C(c2ccccc2)C(c2ccccc2)=N1",
    "value.reported": "114 % of control"
  },
  {
    "molecule": "O=C1NC(=O)c2ccccc21",
    "value.reported": "101 % of control"
  },
  {
    "molecule": "O=C(O)C1(NO)CCCCC1",
    "value.reported": "102 % of control"
  },
  {
    "molecule": "COc1cc(/C=N/NC(=O)c2ccccc2)ccc1O",
    "value.reported": "97 % of control"
  },
  {
    "molecule": "CCOC(=O)CCN1C(=O)NC(C)(c2ccccc2)C1=O (configuration not stated)",
    "value.reported": "114 % of control"
  },
  {
    "molecule": "O=C(C(=O)c1ccc(Cl)c(Cl)c1)c1ccc(Cl)c(Cl)c1",
    "value.reported": "96 % of control"
  },
  {
    "molecule": "COC(=O)c1ccc(-c2ccccc2)cc1",
    "value.reported": "102 % of control"
  }
]
